# reported CC50; entries follow
Experiment: Cytotoxicity against HGF cells
Type: cell-based
Details: human

1) C=CC(C)(C)c1c(O)c(CC=C(C)C)c(O)c2c(=O)c3ccc(O)c(O)c3oc12 [GERONTOXANTHONE I]    > 510 µM

I'd like to know its CC50. The molecule in question is CC1(C)C=Cc2c(cc3occ(-c4ccc(O)cc4)c(=O)c3c2O)O1 [ALPINUMISOFLAVONE]
> 600 µM

I'd like to know its CC50. The molecule in question is CC(C)=CCc1cc2c(=O)c3c(O)c4c(cc3oc2c(O)c1O)OC(C)C4(C)C (stereo not drawn) [GERONTOXANTHONE G]
> 510 µM

I'd like to know its CC50. The molecule in question is CC(C)=CCc1c(O)cc2occ(-c3ccc(O)cc3)c(=O)c2c1O [WIGHTEONE]
250 µM

I'd like to know its CC50. The molecule in question is "CC1(C)C=Cc2c(cc3oc4c(O)cccc4c(=O)c3c2O)O1"
> 650 µM

I'd like to know its CC50. The molecule in question is C=CC(C)(C)c1c2c(c(O)c3c(=O)c4ccc(O)c(O)c4oc13)C=CC(C)(C)O2 [MACLURAXANTHONE]
> 510 µM

I'd like to know its CC50. The molecule in question is COc1cc(-c2coc3cc(O)cc(O)c3c2=O)ccc1O [3'-O-METHYLOROBOL]
> 670 µM

I'd like to know its CC50. The molecule in question is C=CC(C)(C)c1c(O)cc2oc3c(O)c(O)cc(CC=C(C)C)c3c(=O)c2c1O [ALVAXANTHONE]
25 µM

----------
Test system: HSC-2
Test: Cytotoxicity against human HSC2 cells
Format: functional
Parameter: log10 CC50 (log10 of the value in µM)
Give log10 of CC50, with CC50 taken in µM.

I'd like to know its log10 CC50. The compound in question is "CC(C)=CCc1c(O)cc(O)c2c(=O)c3c(CC=C(C)C)c(O)ccc3oc12"
2.08

I'd like to know its log10 CC50. The compound in question is "CC(C)=CCc1c(O)cccc1C(=O)c1c(O)cc(O)c(CC=C(C)C)c1O"
1.72

I'd like to know its log10 CC50. The compound in question is "CC(C)=CCc1cc(C(=O)c2cccc(O)c2CC=C(C)C)c(O)cc1O"
1.56

I'd like to know its log10 CC50. The compound in question is "C=CC(C)(C)c1c(O)cc2oc3c(O)c(O)cc(CC=C(C)C)c3c(=O)c2c1O"
1.34

I'd like to know its log10 CC50. The compound in question is "CC(C)=CCc1c(O)cccc1C(=O)c1cc2c(cc1O)OC(C)(C)C=C2"
2.23

I'd like to know its log10 CC50. The compound in question is "COc1c2ccoc2cc2oc(=O)ccc12"
2.86

I'd like to know its log10 CC50. The compound in question is "C=CC(C)(C)c1c(O)cc2oc3c(O)c(O)c(CC=C(C)C)cc3c(=O)c2c1O"
1.54

I'd like to know its log10 CC50. The compound in question is "O=C1C[C@@H](c2ccc(O)cc2)Oc2cc(O)cc(O)c21"
2.74

----------
Test: Cytotoxicity against HGF cells
Assay type: cell-based
Conditions: human
Parameter: CC50

Field: example entries. Status: answers known.
1. COc1cc(O)c(C(=O)c2cccc(O)c2CC=C(C)C)c(O)c1    > 610 µM
2. O=C1C[C@@H](c2ccc(O)cc2)Oc2cc(O)cc(O)c21    > 740 µM
3. CC(C)=CCc1c(O)cc2oc3ccc(O)cc3c(=O)c2c1O    > 640 µM

I'd like to know its CC50. The molecule in question is CC1Oc2cc3oc4c(O)c5c(cc4c(=O)c3c(O)c2C1(C)C)C=CC(C)(C)O5 (stereo not given)
> 510 µM

I'd like to know its CC50. The molecule in question is "COc1c2ccoc2cc2oc(=O)ccc12"
> 930 µM

----------
Tested on: HSC-2
Experiment: Cytotoxicity against human HSC2 cells
Format: functional
Parameter: CC50 (µM)
Just the number in µM, nothing appended.

Field: example entries. Status: answers known.
1. CC1(C)C=Cc2c(cc3occ(-c4ccc(O)cc4)c(=O)c3c2O)O1 [ALPINUMISOFLAVONE]    400
2. CC(C)=CCc1c(O)cc2occ(-c3ccc(O)cc3)c(=O)c2c1O [WIGHTEONE]    120
3. COc1cc(O)c(C(=O)c2cccc(O)c2CC=C(C)C)c(O)c1 [CUDRANONE]    400
4. C=CC(C)(C)c1c(O)cc2oc3c(O)c4c(cc3c(=O)c2c1O)C=CC(C)(C)O4 [GERONTOXANTHONE B]    390
5. C=CC(C)(C)c1c(O)c(CC=C(C)C)c(O)c2c(=O)c3ccc(O)c(O)c3oc12 [GERONTOXANTHONE I]    430

Item: CC(C)=CCc1c(O)cc(O)c2c1OC(c1ccc(O)cc1)CC2=O (stereo not drawn) [SOPHORAFLAVANONE B] Test system: HSC-2 Read-out: CC50 Value: ?
130

Item: CC(C)=CCc1c(O)cccc1C(=O)c1c(O)cc(O)c2c1OC(C)(C)C=C2 [CUDRAPHENONE C] Test system: HSC-2 Read-out: CC50 Value: ?
92

Item: COc1cc(-c2coc3cc(O)cc(O)c3c2=O)ccc1O [3'-O-METHYLOROBOL] Test system: HSC-2 Read-out: CC50 Value: ?
160

Item: "CC1(C)C=Cc2c(cc3oc4c(O)cccc4c(=O)c3c2O)O1" Test system: HSC-2 Read-out: CC50 Value: ?
480

----------
Tested on: HSC-2
Assay: Cytotoxicity against human HSC2 cells
Format: functional
Parameter: CC50

I'd like to know its CC50. The compound in question is "C=CC(C)(C)c1c2c(c(O)c3c(=O)c4ccc(O)c(O)c4oc13)C=CC(C)(C)O2"
> 510 µM

I'd like to know its CC50. The compound in question is CC1Oc2cc3oc4c(O)c5c(cc4c(=O)c3c(O)c2C1(C)C)C=CC(C)(C)O5 (centres undefined)
> 510 µM

I'd like to know its CC50. The compound in question is CC(C)=CCc1cc2c(=O)c3c(O)c4c(cc3oc2c(O)c1O)OC(C)C4(C)C (centres undefined)
> 510 µM

I'd like to know its CC50. The compound in question is "CC(C)=CCc1c(O)cc2oc3ccc(O)cc3c(=O)c2c1O"
> 640 µM
